Each entry below lists one item and its recorded Efficacy value.
Target: G-protein coupled receptor 35 (Homo sapiens, UniProt Q9HC97)
Sequence (Q9HC97 whole entry): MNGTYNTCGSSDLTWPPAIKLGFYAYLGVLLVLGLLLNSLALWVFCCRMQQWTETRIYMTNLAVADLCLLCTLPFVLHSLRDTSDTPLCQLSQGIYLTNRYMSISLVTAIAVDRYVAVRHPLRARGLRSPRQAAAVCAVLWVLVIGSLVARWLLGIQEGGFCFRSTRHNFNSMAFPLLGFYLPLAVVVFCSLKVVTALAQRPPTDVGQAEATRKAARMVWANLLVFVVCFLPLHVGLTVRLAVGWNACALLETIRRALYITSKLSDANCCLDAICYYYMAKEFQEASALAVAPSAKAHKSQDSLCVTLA
Experiment: Agonist activity at GPR35 in human HT-29 cells by dynamic mass redistribution assay relative to zaprinast
Format: functional, cell-based
Your answer is read as pm, so omit the unit and give the number.

As a guide, the following entries are already answered.
Cc1c(C(=O)O)[nH]c2c(C3CC3)csc12 ... 228
O=C(O)c1cc(=O)c2ccccc2[nH]1 [TRANSTORINE] ... 202

Ask: Which Efficacy value is on record for `O=C(O)c1sc2c(Br)c(Br)sc2c1O` ?
Reply: 228

Ask: Which Efficacy value is on record for `Cc1c(C(=O)O)sc2c(-c3ccsc3)csc12` ?
Reply: 232

Ask: Which Efficacy value is on record for `Cc1c(C(=O)O)sc2c(Br)csc12` ?
Reply: 290

Ask: Which Efficacy value is on record for `Cc1sc2c(C)c(C(=O)O)sc2c1Br` ?
Reply: 268

====

Each entry below lists one item and its recorded pEC50 value.
Molecular target: G-protein coupled receptor 35 (Homo sapiens)
Assay: Agonist activity at GPR35 in human HT-29 cells by dynamic mass redistribution assay
Type: functional, cell-based
Conditions: read-out: EC50
Conceptually, pEC50 converts a concentration in mol/L into minus its log10.

As a guide, the following entries are already answered.
Cc1c(C(=O)O)sc2c(-c3cccnc3)csc12 ... 6.62
Cc1c(C(=O)O)sc2c(Br)csc12 ... 7.21
Cc1c(C(=O)O)sc2c(-c3cn[nH]c3)csc12 ... 6.43
O=C(O)c1sc2c(Br)c(Br)sc2c1C(F)(F)F ... 6.29
Cc1c(C(=O)O)[nH]c2c(C3CC3)csc12 ... 5.08

Ask: Which pEC50 value is on record for `Cc1c(C(=O)O)sc2c(C3CC3)csc12` ?
Reply: 6.02

====

Target: UniProt Q9HC97
Experiment: Agonist activity at GPR35 in human U2OS cells expressing beta-lactamase and Gal4-VP16 transcription factor assessed as beta arrestin translocation after 5 hrs by Tango assay relative to zaprinast
Format: functional, cell-based
Each entry below lists one item and its recorded Efficacy value.

O=C(O)c1cc(=O)c2ccccc2[nH]1 [TRANSTORINE] ... > 60%
Cc1c(C(=O)O)n(C)c2c(Br)csc12 ... 77%
Cc1c(C(=O)O)sc2c(-c3ccsc3)csc12 ... 107%
Cc1c(C(=O)O)sc2c(Br)csc12 ... 113%
Cc1c(C(=O)O)sc2c(-c3cccnc3)csc12 ... 118%

Could you now look at the following molecule, please?
Ask: Which Efficacy value is on record for `Cc1c(C(=O)O)sc2c(-c3cn[nH]c3)csc12` ?
Reply: 102%
